# System: PKB Ser473 phosphorylation in Rat1-myr-HA-p110 alpha cells
# testName: Reverse protein array assay, PKB Ser473 phosphorylation in Rat1-myr-p110 alpha cells
# Format: cell-based
# conditionDescription: 0.5 h, pAkt Ser473, 30 minutes compound incubation, read-out: p-PKB IC50
quantity: IC50 (nM)

Known results for compounds:
Cc1nn(C)cc1-n1c(=O)n(C)c2cnc3ccc(-c4cc(O)cc(F)c4)cc3c21 : 162
Cc1nn(C)cc1-n1c(=O)n(C)c2cnc3ccc(-c4cnc(N)nc4)cc3c21 : 13
Cc1nn(C)cc1-n1c(=O)n(C)c2cnc3ccc(-c4cncc(N)c4)cc3c21 : 60
CNc1ncc(-c2ccc3ncc4c(c3c2)n(-c2cn(C(C)C)nc2C)c(=O)n4C)cc1Cl : 20
Cc1nn(C)cc1-n1c(=O)n(C)c2cnc3ccc(-c4cccc5c4OC(F)(F)O5)cc3c21 : 8

I. Cc1noc(C)c1-n1c(=O)n(C)c2cnc3ccc(-c4cnc(N)c(C(F)(F)F)c4)cc3c21
II. Cn1nccc1-n1c(=O)n(C)c2cnc3ccc(-c4ccc(NCCO)nc4)cc3c21
IC50 comparison. Which is larger, I or II ? Reply with the label of the item you choose.
II

A. CCNC(=O)c1cc(-c2ccc3ncc4c(c3c2)n(-c2c(C)nn(C)c2C)c(=O)n4C)cnc1NC
B. COc1ccc(-c2ccc3ncc4[nH]c(=O)n(-c5cn(C)nc5C)c4c3n2)cc1OC
C. Cc1nn(C)c(C)c1-n1c(=O)n(C)c2cnc3ccc(-c4cnc(N)c(C(F)(F)F)c4)cc3c21
List these items ordered by IC50, big to small. As an answer, provide the labels arranged in the order called for.
A, C, B
(A: 371 nM, C: 25 nM, B: 7 nM)

P. CCOc1cncc(-c2ccc3ncc4c(c3c2)n(-c2cn(C)nc2Cl)c(=O)n4C)c1
Q. Cc1nn(C)cc1-n1c(=O)n(C)c2cnc3ccc(-c4cnc5c(c4)n(C)c(=O)n5C)cc3c21
R. Cc1nn(C)cc1-n1c(=S)n(C)c2cnc3ccc(-c4cccnc4)cc3c21
Which order do these items take when sorted by rising IC50? List them. As an answer, provide the labels arranged in the order called for.
R, P, Q

P. CCOc1cncc(-c2ccc3ncc4c(c3c2)n(-c2cn(CC(=O)N(C)C)nc2C)c(=O)n4C)c1
Q. Cc1nn(C)cc1-n1c(=O)n(C)c2cnc3ccc(-c4cccc(OC(C)C)c4)cc3c21
When the recorded IC50 values are compared, which is smaller: that of P or that of Q ? Reply with the label of the item you choose.
Q
